Test: soluble on expression in E. coli; label from the status in PepcDB or PDB records
measured_parameter: soluble on expression in E. coli

[[record]]
item_sequence = "MCLDVLIHYPQEKADEMISHLCSLAQSRIILSFAPKTCALTLLKKIGSFFPGPSKTTRAYLHREADVIKILESNGFAIQRKEFTKTRFYFSRILEATRSLEHHHHHH"
value = "not soluble"

[[record]]
item_sequence = "MLLTCRFTAATSRLSACTRSFSIDFSHEKPAPHQLEHVTTRLTETVPLMFRRRMDYTFYRKDVVCDDQIFSVEKRGIEQLMSHFGMIGTLGQVFLPHVEMEMLSVAPVIDEGTVRCRWRVKYVSFTRIIMNPRLLRFDYRMQNLSWFDGYSVLTVDGNGEVYKVTLQKMQQDEQKSLLTSTTEKLKEKLAPSAANN"
value = "not soluble"


* * *

Experiment: soluble on expression in E. coli; label from the status in PepcDB or PDB records
measured_parameter: soluble on expression in E. coli

[[record]]
item_sequence = "MGNRLMTSGAQGTNAAVIRGAMRADPNLLTVILPQSLDRQPRESREQLEKVIHLVEHAENDHLSLAEASTLCNQAIVTRCQQLICFAFHDSHTLLETCRYAEDQHHLVTLFYFDLEHHHHHH"
measured_parameter = "soluble on expression in E. coli"
value = "soluble"

[[record]]
item_sequence = "MRLEKFIHLLGERGFDGALISPGTNLYYLTGLRLHEVGERLAILAVSAEGDYRFLAPSLYENVVNNFPATFWHDGENPYAKLREILEELGISKGRILIEDTMRADWLIGIMKLGKFTFQPLSSLIKELRMIKDKEEVKMMEHASRIADKVFEEILTWDLIGMKERELALKIELLIRELSDGIAFEPIVASGENAANPHHEPGERKIRKGDIIILDYGARWKGYCSDITRTIGLGELDERLVKIYEVVKDAQESAFKAVREGIKAKDVDSRAREVISKAGYGEYFIHRTGHGLGLDVHEEPYIGPDGEVILKNGMTFTIEPGIYVPGLGGVRIEDDIVVDEGKGRRLTKAERELIIL"
measured_parameter = "soluble on expression in E. coli"
value = "soluble"


* * *

Test: soluble on expression in E. coli; label from the status in PepcDB or PDB records
measured_parameter: soluble on expression in E. coli

[[record]]
item_sequence = "MYKLIAIDMDGTLLNDHHEVTEEVRDALHAAKAEGVKIVLCTGRPIGGVQRYLDELNLIEEGDYVIAYNGALVQNTHTNEVVSELSLGYDDLTSLYDLSLELKTPMHFFDSSNLYTPNRDISEFTVYESYVTQVPLHFRKIDEVPKDILIPKVMFIDKPENLSRVITSIPKDVREKYTMVRSAPFFYEILHSEASKGNAVRQLAQLLGIEQAEVMCIGDNGNDLTMIEWAGCGVAMANAIPEVLEAANFQTRSNNEHGVAHAIHELVLAKLEHHHHHH"
value = "soluble"

[[record]]
item_sequence = "GARIKTLSVSRPIIYGNTAKKMGSVKPPNAPAEHTHLWTIFVRGPQNEDISYFIKKVVFKLHDTYPNPVRSIEAPPFELTETGWGEFDINIKVYFVEEANEKVLNFYHRLRLHPYANPVPNSDNGNEQNTTDHNSKDAEVSSVYFDEIVFNEPNEEFFKILMSR"
value = "soluble"

[[record]]
item_sequence = "MDLALFDLDETLISDDSTGLWIRWLVNEGLAPFELSEQEQTLMTQYYQGQLSMAGYMAATLSPLVGKHTAEVAGWVEHFIAHDILPRIYPQALEKLAWHRDRGDYIVIISASGEHLVTPIAKHFAADTALSIGVTVENDRYTGQTYGTLTYQKGKVDRLNQWLSASPQLNFKRSYGYSDSINDQPLLEYVDHAAVINPGAELIDLAVLHQWDIHHW"
value = "not soluble"

[[record]]
item_sequence = "MAPLNYKTITSRSILSKVLVRATQQWPTDKTLNKQLSELYGAYVNSFVSKFKDKHVITISLEVVNEKFLKDKTPLFEKGLDTLKEIIWNPLIKDRCFDHTYVAQEKSLLSKKLEAMEDNKAQYSFLQLMNYMFKQEPYRYIATGQLEQIPQVTSESLYDTYLSMVQNDDCAIYVVGNINKEEVTQLILDKFAIKPFYLENKESTEITPSFDQPQYIIEKDDVDQAKLNLGYRFPSYYGKSNYYAFIVLNMMFGGDPSSVLFNEVREKQSLAYSIHSQIDGKNGFLFVLSGVSAEKYEQAKDTVIKEFDKIKNGDFDSNKIELAKKIIISHRHEASDRPKSIIEILHNQLLLNRQQTDQDFINAVNQVTKKDVIKLANEAVLDTIYVLTKGDQH"
value = "not soluble"

[[record]]
item_sequence = "MEENKQRVKSMINILQLVAPGTPLREGIDNVLRAQTGGLIVLGYNEQIKSIVDGGFHINCAFSPASLYELAKMDGALILNETGSKILIANAQLVPDSSIDSIETGMRHRTAERVAKQTGSLVVAISQRRNVITLYQGNLRYTLKDIGVILTKANQAIQTLEKYKAVWNDGITNLGILEFEEVVTMSEVVHVLHSVEMVLRIKNEILSYIHELGTEGRLIRLQLTELLADLEAEAALLIKDYHQEKTQDHHQILKKLQDLANTQLLEDSDLVKLLGYPGQTSLEESVTPRGYRITSKISRVPPLIIENLINRFKTLQGVCRATINELDDVEGIGEVRAKKIREGLKRIQEHLYMSRHN"
value = "not soluble"

[[record]]
item_sequence = "MAHHHHHHMQHSLRGDFVTQRSTCFRTEKERKQKALNLIKNENNAEGYFNNLNFNLEYTEELNEQITSLDPKTSIQELTNIFNDLNENRKKNFHYLIEALENVSLILAHQNDIPEKHRKSTWCKIKHDLQCDFIKEHPNIHSNFDVFIRKIQSIDEFISYIKECIHSWNNFTNEKKLQYFPKVYETYQSDKICKENNYKKINNKTECNPKESIKNESIPKECIPNENMKKECVPNGCMKKQCVPKECMKKECVTNGHMKKQCVPNECMKKQCVPKECMKKECVPNGCMKKECTPNKNDKNVNRTDINNQNKTNEKLCDKKEKKRLPSK"
value = "soluble"

[[record]]
item_sequence = "MSLKKINFGIVGLGRLGRAHAENLAFKIPNANLLAVCSIDKSQVDEVQKAWNIPYGYTDFDEMLKNKELDAIFIASPSGFHCEQIEKALDAGFHVFSEKPLGLYLDDAVRAMKAVNSHPNQIFMLGFMRRYDKSYAYAKKKIEEGAIGKPVLVRCYGLDPAKALPSFLKFAKDSYSGGLFLDMAIHDIDLARWYLDSEADELWAIGGAYGHKEFDEINDAETGAAMVKFKNGTMALLVAGRNCAHGYHIETEIIGTEGTLRIGTTPDKNLVTVFDSRGVNKECAGGFLERFEDAYLAEVKEFVDCVLENRKPAVTVEDGVLSTIVGYACKESFETGELVKVNYEGYDKLIKEGHHHHHH"
value = "soluble"

[[record]]
item_sequence = "QDFAELQGKWYTIVIAADNLEKIEEGGPLRFYFRHIDCYKNCSEMEITFYVITNNQCSKTTVIGYLKGNGTYETQFEGNNIFQPLYITSDKIFFTNKNMDRAGQETNMIVVAGKGNALTPEENEILVQFAHEKKIPVENILNILATDTCPE"
value = "soluble"

[[record]]
item_sequence = "FFTPPHIVQLCVRLVDDFADGMTFHDPTVGSGGMLTEAAKYYREAQGGDPSKLTFTGQEINPDIAAIARMNLSLHTLNGEIERGDSLASPGFTDGDDLERFDRVLANFPFSADWAKDDLQDDQYGRFDWHTKLPRADRGDYAFIMHIAEQLKEPDCGDESGGKAAIVIPHGVLFRKHEQRYRQPMLENDLVEAIVGLPENLFQNNSIPSAILVLNTDKPADREGEVQFIHAADEAFYEELSNQNELTDDGLDHIVENFDDWTTE"
value = "not soluble"

[[record]]
item_sequence = "MGSSHHHHHHSSGLVPRGSHMKPVLTVYTYDSFAADWGPGPVVKKAFEADCNCELKLVALEDGVSLLNRLRMEGKNSKADVVLGLDNNLLDAASKTGLFAKSGVAADAVNVPGGWNNDTFVPFDYGYFAFVYDKNKLKNPPQSLKELVESDQNWRVIYQDPRTSTPGLGLLLWMQKVYGDDAPQAWQKLAKKTVTVTKGWSEAYGLFLKGESDLVLSYTTSPAYHILEEKKDNYAAANFSEGHYLQVEVAARTAASKQPELAQKFLQFMVSPAFQNAIPTGNWMYPVANVTLPAGFEKLTKPATTLEFTPAEVAAQRQAWISEWQRAVSR"
value = "soluble"

